# Procedure Text: NCI Yeast Anticancer Drug Screen. Data for the cln2 rad14 strain (AID 165);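 note: 0% = growth equal to vehicle treated cultures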
# Condition Info: S. cerevisiae cln2 rad14 strain, at 50.0 µM, stronger effect = higher value
# Procedure: Growth inhibition of yeast strains with defined genetic alterations is measured as a screen for potential anti-cancer activity. Selected strains with alterations in DNA damage repair or cell cycle control were exposed to compounds and growth inhibition was measured relative to vehicle treated controls. The strain used in this assay is cln2 rad14
This is part of a sample that, as a whole, favours compounds with a hit. Of some 79,000 tested, about 15% had one in any assay.
growth inhibition below 70% gives criterion not met; growth inhibition at or above it gives criterion met.

- Compound: "O=C(O)CCCc1ccc2ccccc2c1"
  Category: "criterion not met"
- Compound: "COc1ccc(Cc2c(-c3ccc(C)cc3)n[nH]c(=O)c2C2C(=O)N(c3ccccc3)N=C2c2ccccc2)cc1 (stereo not given)"
  Category: "criterion met"
- Compound: "CC12CCCCC1CCC(Br)C2=O (stereo not given)"
  Category: "criterion not met"

Task: Is it the case that CCCCCCCCCCC(=O)CC(=O)c1c(O)cccc1O has growth inhibition reaching or exceeding 70%?
Output: criterion not met

Task: Is it the case that Cc1c[nH]c(=O)n(CC(=O)C2CCC3C4CCC5=CC(=O)CCC5(C)C4CCC23C)c1=O (stereo not given) has growth inhibition reaching or exceeding 70%?
Output: criterion not met

Task: Is it the case that CCCCN(CCCC)CC(O)c1cccc2c(Cl)cccc12 (stereo not given) has growth inhibition reaching or exceeding 70%?
Output: criterion met

Task: Is it the case that CC(C)C1=CC23CCC4C(C)(C(=O)O)CCCC4(C)C2CC1C(C(=O)O)C3C(=O)O (stereo not given) has growth inhibition reaching or exceeding 70%?
Output: criterion met

Task: Is it the case that O=C(C(=Cn1c(=S)[nH]c2ccc([N+](=O)[O-])cc21)C(=O)c1ccccc1)c1ccccc1 has growth inhibition reaching or exceeding 70%?
Output: criterion met

Task: Is it the case that O=C1/C(=N/N=C(c2ccccc2)c2ccccc2)c2ccccc2-c2ccccc21 has growth inhibition reaching or exceeding 70%?
Output: criterion not met

Task: Is it the case that O=C(c1c(F)c(F)c(F)c(F)c1F)N1CCN(C(=O)c2c(F)c(F)c(F)c(F)c2F)C1=S has growth inhibition reaching or exceeding 70%?
Output: criterion met

====

# Procedure Text: NCI Yeast Anticancer Drug Screen. Data for the sgs1 mgt1 strain (AID 161);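 note: 0% = growth of cultures given vehicle only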
# Condition Info: S. cerevisiae sgs1 mgt1 strain, at 5.0 µM (retest, dose inferred, filed as 0.5), stronger effect = higher value
Compounds without any hit were thinned out: in the full panel of roughly 79,000, 15% have a hit.
Quantity Kind: growth inhibition (%)
State the answer as a number, implicitly in %.

- Compound: "COc1ccc(CN2CCCN(Cc3ccc(OC)cc3)C2Cc2cc(Cl)ccc2OC)cc1"
  Quantity Kind: "growth inhibition"
  Test Value: -44
- Compound: "CN(C)N=Nc1c(-c2ccccc2)n[nH]c1-c1ccccc1"
  Quantity Kind: "growth inhibition"
  Test Value: 99
- Compound: "NC(=Nc1cc2ccccc2c2ccccc12)Nc1cc2ccccc2c2ccccc12"
  Quantity Kind: "growth inhibition"
  Test Value: 89
- Compound: "O=C(C(=Cn1c(=S)[nH]c2ccc([N+](=O)[O-])cc21)C(=O)c1ccccc1)c1ccccc1"
  Quantity Kind: "growth inhibition"
  Test Value: -7

Now let's try a different one.
Task: For the compound CN(C)c1cc2c(cc1[N+](=O)[O-])-c1ccccc1C2O (stereo not given) , what growth inhibition is on record?
Output: 0

====

# Procedure Text: NCI Yeast Anticancer Drug Screen. Data for the mec2-1 strain (AID 157)
# Condition Info: S. cerevisiae mec2-1 strain, at 50.0 µM (retest, dose inferred, filed as 5.0), stronger effect = higher value
The panel holds about 79,000 compounds, 15% with a hit somewhere; the sample as a whole holds those more often.
Each entry falls into one class according to its growth inhibition; the ranges are L: < 70%; M: ≥ 70% and < 90%; H: ≥ 90%

- Compound: "COc1cc(O)c2c(c1)C(=O)C1=C(C2=O)[C@@H](C)OC(C)[C@H]1O (stereo not given in full)"
  Category: "H"
- Compound: "CSc1c(C)n([O-])c2cc(Cl)c(Cl)cc2[n+]1=O"
  Category: "H"
- Compound: "COc1cc(C(=O)C2OC2c2ccc(Cl)cc2)c([N+](=O)[O-])cc1OC (stereo not given)"
  Category: "L"
- Compound: "CCC(=NCCCCCCN=C(CC)c1cc(C)cc([N+](=O)[O-])c1O)c1cc(C)cc([N+](=O)[O-])c1O.[Fe]"
  Category: "M"
- Compound: "CN(NC(=O)CC(=O)NN(C)C(=S)c1ccccc1)C(=S)c1ccccc1"
  Category: "M"

Task: Looking at CC(=O)Oc1cccc2c1C(=O)C(Br)(Br)CCC2 , which class would you pick?
Output: H

Task: Looking at O=C(c1ccccc1)c1c(CO[N+](=O)[O-])n([O-])c2ccccc2[n+]1=O , which class would you pick?
Output: H

Task: Looking at C/C=C/C=C/C(=O)Nc1ccc([N+](=O)[O-])cc1 , which class would you pick?
Output: L

Task: Looking at CS(C)=O.[Cl-].[Cl-].[NH-]CC(O)CN(Cc1ccccc1)CC(O)CN.[Pt] (stereo not given) , which class would you pick?
Output: L

Task: Looking at C=CC1(C)CCC2C(=CCC3C(C)(C(=O)O)CCCC23C)C1 (stereo not given) (tested in a mixture with another compound) , which class would you pick?
Output: M

====

# Procedure Text: NCI Yeast Anticancer Drug Screen. Data for the bub3 strain (AID 167)
# Condition Info: S. cerevisiae bub3 mutant strain, at 50.0 µM (retest, dose inferred, filed as 5.0), stronger effect = higher value
Compounds without any hit were thinned out: in the full panel of roughly 79,000, 15% have a hit.
Quantity Kind: growth inhibition (%)
State the answer as a number, implicitly in %.

- Compound: "CC(CN1CCOCC1)(CN1CCOCC1)[N+](=O)[O-]"
  growth inhibition (%): 99
- Compound: "CC1(C)C2CCC(C2)C1OC(=O)c1ccccc1C(=O)O (stereo unspecified)"
  growth inhibition (%): 26
- Compound: "Cc1ccccc1Oc1ccccc1N"
  growth inhibition (%): 10
- Compound: "Nc1ccc([N+](=O)[O-])cc1Nc1c2ccccc2nc2ccccc12"
  growth inhibition (%): 17

Task: For the compound COC(=O)c1ccccc1C=C(c1ccc([N+](=O)[O-])cc1)c1ccc([N+](=O)[O-])cc1 , what growth inhibition is on record?
Output: 98

Task: For the compound CC[C@]1(O)C[C@H]2[C@@H]3CCc4cc(OC)ccc4[C@H]3CC[C@]2(C)[C@H]1O , what growth inhibition is on record?
Output: 97

Task: For the compound Cc1nnc2nc3c(nn12)c1ccccc1n3C , what growth inhibition is on record?
Output: -57

Task: For the compound CN1CCS(=O)(=O)C1=O , what growth inhibition is on record?
Output: 94

Task: For the compound O=C1C=C(c2ccccc2)S(=O)(=O)c2c(O)cccc21 , what growth inhibition is on record?
Output: 99

Task: For the compound C/C=C1/C=CC2c3[nH]c4ccccc4c3CCN2C1 (stereo unspecified) , what growth inhibition is on record?
Output: -81

====

# Procedure Text: NCI Yeast Anticancer Drug Screen. Data for the sgs1 mgt1 strain (AID 161);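 note: 0% = growth of cultures given vehicle only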
# Condition Info: S. cerevisiae sgs1 mgt1 strain, at 5.0 µM (retest, dose inferred, filed as 0.5), stronger effect = higher value
The panel holds about 79,000 compounds, 15% with a hit somewhere; the sample as a whole holds those more often.
Quantity Kind: growth inhibition (%)
State the answer as a number, implicitly in %.

- Compound: "Cc1c(N=Nc2ccc(Br)cc2)c(-c2ccccc2)nn1C(=S)S"
  Quantity Kind: "growth inhibition"
  Test Value: 3
- Compound: "CCCCCCCCCCCCCCCC(=O)NCC[N+](C)(CC)CC"
  Quantity Kind: "growth inhibition"
  Test Value: -4
- Compound: "COc1cc(O)c2c(c1)C(=O)c1cc3c(c(O)c1C2=O)C(OC1OC(C)C(O)C(O)C1OC)C(OC)C(C)(O)C3=O (configuration not stated)"
  Quantity Kind: "growth inhibition"
  Test Value: 35

Now let's try a different one.
Task: For the compound CC(C)/C(Cl)=N\OC(=O)Nc1cccc(F)c1 , what growth inhibition is on record?
Output: -6

====

# Procedure Text: NCI Yeast Anticancer Drug Screen. Data for the mec2-1 strain (AID 157)
# Condition Info: S. cerevisiae mec2-1 strain, at 5.0 µM (retest, dose inferred, filed as 0.5)
The panel holds about 79,000 compounds, 15% with a hit somewhere; the sample as a whole holds those more often. Active and inactive are the calls of the source. Cut-off read from the data, not from the text of the source: active = growth inhibition above about 70%; inactive = the rest.
Mark one answer only. Choices: 1 = active, 0 = inactive

Before answering, review these 5 worked examples.
- Compound: "O=C1C=CC(=O)N1c1cccc([N+](=O)[O-])c1"
  Category: 1
- Compound: "c1ccc(CCNCc2ccco2)nc1"
  Category: 0
- Compound: "CS(=O)(=O)c1cc(=O)c2ccccc2s1"
  Category: 0
- Compound: "CC(=O)OC1CCC2(C)C(CCC3C4=CCC(C5COC(=O)C5)C4(C)CCC32)C1 (stereo not drawn)"
  Category: 0
- Compound: "O=C(CCn1[nH]c(=O)c(Cl)c(Cl)c1=O)NNc1ccc([N+](=O)[O-])cc1[N+](=O)[O-]"
  Category: 0

Task: Tell me the recorded outcome of this test for COC(=O)C1C(O)C(C)C(=O)C(C)/C=C\C=C(C)C(=O)Nc2c(C)c(OC(C)=O)c3c(c2O)C(=O)C(C)=C2OCOC(=C23)C(C)=CC(C)(O)C(O)C(C)C1O (stereo not drawn) .
Output: 0

Task: Tell me the recorded outcome of this test for Cc1ccc(NC(=S)SCc2ccco2)cc1Cl .
Output: 0

Task: Tell me the recorded outcome of this test for CCOC(=O)C1=C(N)OC(c2ccccc2)=C(C#N)C1c1ccc(C)cc1 (stereo not drawn) .
Output: 0

Task: Tell me the recorded outcome of this test for CCCCCCCCCCCCCCNCC(OCC)OCC .
Output: 0

Task: Tell me the recorded outcome of this test for Cc1ccc(C)c(N2C/C(=N\NC(=O)CC#N)C(c3nc4ccccc4s3)C(=O)C2=O)c1 (stereo not drawn) .
Output: 0

Task: Tell me the recorded outcome of this test for COC(=O)Cn1/c(=N\N=C(/C)c2ccc(C)cc2)sc2ccccc21 .
Output: 0

Task: Tell me the recorded outcome of this test for O=C(C(=S)c1ccccc1)N(Cc1ccccc1)Cc1ccccc1 .
Output: 0

Task: Tell me the recorded outcome of this test for C=CCOc1ccccc1C(OCC)OCC .
Output: 0

Task: Tell me the recorded outcome of this test for COC(=O)[C@]1(C)CCCC2(C)C3=C(CCC21)CC1(CC3)SCCS1 (stereo partly drawn) .
Output: 0

Task: Tell me the recorded outcome of this test for Clc1ccc(-c2nnc(-c3ccccn3)o2)c(Cl)c1 .
Output: 0
